// values below are reported half-life at 0.2 mg/ml
assay: Stability in aqueous media (PBS pH 7.4); type: physicochemical; parameters: unit not given here; details: phosphate buffer solution (PBS); PBS pH 7.4, 37° C., samples at T=0, 4, 24, 96 h; read-out: Stability grading (t1/2)
Non-standard residues stand in square brackets, D forms with d. Residues, ends and D or L forms follow the SMILES beside them. dHis(τ-Bn) = N[C@H](Cc1cn(Cc2ccccc2)cn1)C(=O)O; d2Nal = N[C@H](Cc1ccc2ccccc2c1)C(=O)O; pGlu = O=C1CC[C@@H](C(=O)O)N1

The cases that follow already have their half-life at 0.2 mg/ml on record.
1) CC(C)C[C@H](NC(=O)[C@@H](Cc1ccc2ccccc2c1)NC(=O)[C@H](Cc1c[nH]cn1)NC(=O)[C@H](CO)NC(=O)[C@H](Cc1c[nH]c2ccccc12)NC(=O)[C@H](Cc1c[nH]cn1)NC(=O)[C@@H]1CCC(=O)N1)C(=O)N[C@@H](CCCNC(=N)N)C(=O)N1CCC[C@H]1C(=O)NCC(N)=O [Compound 23] ([pGlu]HWSH[d2Nal]LRPG-NH2)
> 96
2) CCNC(=O)[C@@H]1CCCN1C(=O)[C@H](Cc1ccc(O)cc1)NC(=O)[C@H](Cc1c[nH]c2ccccc12)NC(=O)[C@@H](Cc1cn(Cc2ccccc2)cn1)NC(=O)[C@H](Cc1ccc(O)cc1)NC(=O)[C@H](CO)NC(=O)[C@H](Cc1c[nH]c2ccccc12)NC(=O)[C@H](Cc1c[nH]cn1)NC(=O)[C@@H]1CCC(=O)N1 [Compound 62] ([pGlu]HWSY[dHis(τ-Bn)]WYP-NHEt)
< 96
3) CCNC(=O)[C@@H]1CCCN1C(=O)[C@H](CCCNC(=N)N)NC(=O)[C@H](CC(C)C)NC(=O)[C@@H](CC(C)C)NC(=O)[C@H](Cc1c[nH]cn1)NC(=O)[C@H](CO)NC(=O)[C@H](Cc1c[nH]c2ccccc12)NC(=O)[C@H](Cc1c[nH]cn1)NC(=O)[C@@H]1CCC(=O)N1 [Compound 42] ([pGlu]HWSH[dL]LRP-NHEt)
> 96
4) NC(=O)CNC(=O)[C@@H]1CCCN1C(=O)[C@H](Cc1ccc(O)cc1)NC(=O)[C@H](Cc1c[nH]c2ccccc12)NC(=O)[C@@H](Cc1c[nH]c2ccccc12)NC(=O)[C@H](Cc1ccc(O)cc1)NC(=O)[C@H](CO)NC(=O)[C@H](Cc1c[nH]c2ccccc12)NC(=O)[C@H](Cc1c[nH]cn1)NC(=O)[C@@H]1CCC(=O)N1 [Compound 64] ([pGlu]HWSY[dW]WYPG-NH2)
< 96

Moving on to the next compound.
Input: Reported half-life at 0.2 mg/ml, compound CCNC(=O)[C@@H]1CCCN1C(=O)[C@H](CCCNC(=N)N)NC(=O)[C@H](Cc1c[nH]c2ccccc12)NC(=O)[C@@H](CC(C)C)NC(=O)[C@H](Cc1ccc(O)cc1)NC(=O)[C@H](CO)NC(=O)[C@H](Cc1c[nH]c2ccccc12)NC(=O)[C@H](Cc1c[nH]cn1)NC(=O)[C@@H]1CCC(=O)N1 [Compound 44] ([pGlu]HWSY[dL]WRP-NHEt) : ____
Output: > 96
